# Tested on: Gram-positive bacteria
# measurementNotes: MIC across the tested strains
# Assay type: cell-based
# studyConditions: across the tested strains
parameterMeasured: MIC

What the record says about Cc1cc(NCc2cn(-c3ccc(C(=O)O)cc3)nc2-c2cc(C(F)(F)F)cc(C(F)(F)F)c2)ccc1F : MIC is ≥ 1 µg/mL

What the record says about O=C(O)c1ccc(-n2cc(CNc3cc(Cl)c(F)cc3F)c(-c3cc(C(F)(F)F)cc(C(F)(F)F)c3)n2)cc1 : MIC is ≥ 0.25 µg/mL

What the record says about Cc1ccc(NCc2cn(-c3ccc(C(=O)O)cc3)nc2-c2cc(C(F)(F)F)cc(C(F)(F)F)c2)cc1Cl : MIC is ≥ 1 µg/mL

What the record says about O=C(O)c1ccc(-n2cc(CNc3ccc(F)c(F)c3)c(-c3cc(C(F)(F)F)cc(C(F)(F)F)c3)n2)cc1 : MIC is 1 to 4 µg/mL

What the record says about Cc1cc(NCc2cn(-c3ccc(C(=O)O)cc3)nc2-c2cc(C(F)(F)F)cc(C(F)(F)F)c2)ccc1Br : MIC is ≥ 1 µg/mL
